The reported numbers originate from patent US10669272B2.

# ASSAY_SYSTEM: human DGKα (Homo sapiens)
# Construct: TVMV protease cleavage site (C); Hexa-His (C); made in house; host or cells: Sf9 insect cells (baculovirus, Bac-to-Bac)
# Sequence (P23743 with tags, fused parts or gaps): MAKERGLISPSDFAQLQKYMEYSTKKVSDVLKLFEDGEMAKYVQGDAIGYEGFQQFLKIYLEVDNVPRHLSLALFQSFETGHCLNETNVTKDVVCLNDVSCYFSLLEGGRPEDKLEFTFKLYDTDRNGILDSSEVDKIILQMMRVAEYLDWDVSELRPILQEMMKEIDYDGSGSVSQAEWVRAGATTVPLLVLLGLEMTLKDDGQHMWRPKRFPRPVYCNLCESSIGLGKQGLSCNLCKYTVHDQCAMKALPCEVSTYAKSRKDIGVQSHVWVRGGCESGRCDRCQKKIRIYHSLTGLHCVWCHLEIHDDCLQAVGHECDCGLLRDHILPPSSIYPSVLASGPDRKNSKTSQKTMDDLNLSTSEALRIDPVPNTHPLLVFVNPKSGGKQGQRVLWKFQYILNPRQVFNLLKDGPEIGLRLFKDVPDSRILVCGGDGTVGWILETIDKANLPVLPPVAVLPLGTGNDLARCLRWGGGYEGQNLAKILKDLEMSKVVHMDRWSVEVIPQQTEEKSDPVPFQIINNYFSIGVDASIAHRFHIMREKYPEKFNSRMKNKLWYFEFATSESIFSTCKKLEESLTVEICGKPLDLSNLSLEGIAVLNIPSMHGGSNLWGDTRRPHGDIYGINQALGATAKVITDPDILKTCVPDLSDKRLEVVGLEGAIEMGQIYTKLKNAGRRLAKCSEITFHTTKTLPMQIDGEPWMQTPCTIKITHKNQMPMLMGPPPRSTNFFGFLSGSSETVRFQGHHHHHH
# TEST_PROTOCOL: DGKα LIPGLO assay (extruded liposome substrate), in vitro DGK inhibition
# Format: biochemical
# MEASUREMENT_CONTEXT: liposome (LIPGLO) assay; read-out: DGKa LIPGLO IC50
pIC50: −log10 of the molar value.
PARAMETER: pIC50

Look over these answered cases.
- MOLECULE: "CC1CN(c2cc(=O)n(C)c3ccc(C#N)nc23)CC(C)N1C(c1ccc(F)cc1)c1ccc(F)cc1 (stereo not drawn) [Example 163]"
  ASSAY_SYSTEM: "human DGKα (Homo sapiens)"
  PARAMETER: "pIC50"
  QUANTITATIVE_RESULT: 4.80
- MOLECULE: "Cc1nccc(C(c2ccc(F)cc2)N2CCN(c3c(C#N)c(=O)n(C)c4ccc(C#N)nc34)C[C@H]2C)n1 (stereo partly drawn) [Example 316]"
  ASSAY_SYSTEM: "human DGKα (Homo sapiens)"
  PARAMETER: "pIC50"
  QUANTITATIVE_RESULT: 5.62
- MOLECULE: "C[C@@H]1CN(c2cc(=O)n(C)c3ccc(C#N)nc23)[C@@H](C)CN1C(c1ccc(F)cc1)c1ccc(C(F)(F)F)cc1 (stereo partly drawn) [Example 294]"
  ASSAY_SYSTEM: "human DGKα (Homo sapiens)"
  PARAMETER: "pIC50"
  QUANTITATIVE_RESULT: 6.72
- MOLECULE: "C[C@@H]1CN(c2cc(=O)n(C)c3ccc(C#N)nc23)[C@@H](C)CN1C(c1ccc(Cl)cc1)c1ccccn1 (mixture of isomers) [Example 403]"
  ASSAY_SYSTEM: "human DGKα (Homo sapiens)"
  PARAMETER: "pIC50"
  QUANTITATIVE_RESULT: 6.85
- MOLECULE: "CC1C(C)N(C(c2ccc(F)cc2)c2ccc(F)cc2)CCN1c1cc(=O)n(C)c2ccc(C#N)nc12 (single isomer, unassigned) [Example 123]"
  ASSAY_SYSTEM: "human DGKα (Homo sapiens)"
  PARAMETER: "pIC50"
  QUANTITATIVE_RESULT: 5.62
- MOLECULE: "C[C@@H]1CN(c2cc(=O)n(C)c3ccc(C#N)nc23)[C@@H](C)CN1Cc1cc(C#N)cs1 [Example 1422]"
  ASSAY_SYSTEM: "human DGKα (Homo sapiens)"
  PARAMETER: "pIC50"
  QUANTITATIVE_RESULT: 6.54

(I) CCC(c1ccc(OC(F)(F)F)cc1F)N1C[C@H](CC)N(c2cc(=O)n(C)c3ccc(C#N)nc23)C[C@H]1C (single isomer, unassigned) [Example 1377]
(II) CCC(c1ccc(OC(C)C)cc1)N1C[C@H](C)N(c2cc(=O)n(C)c3ccc(C#N)nc23)C[C@H]1CC (single isomer, unassigned) [Example 1448]
(III) COC[C@@H]1CN(c2cc(=O)n(C)c3ccc(C#N)nc23)[C@@H](C)CN1C(c1ccc(F)cc1)c1ccc(F)cc1 [Example 1155]
(IV) C[C@@H]1CN(c2cc(=O)n(C)c3ccc(C#N)nc23)[C@@H](C)CN1Cc1c(F)cccc1F [Example 271]
(V) C[C@@H]1CN(c2cc(=O)n(C)c3ccc(C#N)nc23)[C@@H](C)CN1C(c1ccc(F)cc1)c1cnsc1 (single isomer, unassigned) [Example 715]
Lookup: Could you please sort these 5 entries by pIC50 from high to low? Provide your answer as the labels ordered per the instruction.
Found: I, IV, V, III, II
